Tested on: MS2 coat protein
measurementDescription: apparent KD of MS2 coat protein; higher = weaker reporter binding
runParameters: Eterna round: R107; input ligand: theophylline 20 uM

| biopolymerSequence | apparent KD of MS2 coat protein, nM |
| --- | --- |
| GGGCAAGAGGGAAGGAGCGUCGGCUGGGUAACAUGAGGAUCACCCAUGUAGCACAUGGUGUGGCAGGUAGGUCGCCCUCUGCCCU [SS-ArgB9] | 153 |
| UGUAUGUGAUCUGAUACCAGUGACACGAAAGUGAAUCGCUUGAGGAUCACCCAAGUAAAACACCCUUGGCAGCAGAUCGCAUACU [Full moving switch bubble 1] | 23.5 |
| UAUUUUGGGCGCGAGCCCGGGAUAAUUGAUACCAGUGAAGAAGAGCGCCCUUGGCAGCGAAUCCUAACAUGAGGAUCACCCAUGU [5.Q] | 65.4 |
